- Tested on: SF-539 CNS
- METHOD NOTES: NCI tumour cell line growth inhibition, 48 h
Label true (1) when TGI >= 30 µM; otherwise false (0).

Sample answers from the record:
CN(C)CCCNC1=C(Cl)C(=O)c2ccccc2C1=O | false (0)
C=CCc1cc(OC)c2c(c1)C(O)CC(c1ccc(OC)c(OC)c1)O2 (stereo not given) | true (1)
COc1ccc(NC(=S)Nc2cc(C)cc(C)n2)cc1 | true (1)
FC(F)(F)c1ccc(C2SCc3nc4ccccc4n32)cc1 (stereo not given) | true (1)
O=C(CCl)N1c2ccccc2Oc2ccc3ccccc3c21 | false (0)
COc1ccc(N2CN3OC(=O)N(c4ccc(OC)cc4)[C@@]3(c3ccccc3)C2)cc1 | true (1)

Exam item: decide whether the reported TGI for C/C(CCn1[nH]c(=O)ccc1=O)=N\O is at least 30 µM.
true (1)

Exam item: decide whether the reported TGI for NC1CCC(Nc2nc(NCc3ccc(-c4ccco4)nc3)c3ncn(C4CCCC4)c3n2)CC1 (stereo not given) is at least 30 µM.
false (0)

Exam item: decide whether the reported TGI for Cc1ccc(N=N/C(=N/NC(=O)c2cc(Cl)ccc2O)c2ccc(N(CCC#N)CCC#N)cc2C)cc1 is at least 30 µM.
true (1)

----------
Quick reference for TGI among some compounds
- Tested on: SNB-75 CNS
- METHOD NOTES: NCI tumour cell line growth inhibition, 48 h

I have this compound here, FC(F)(F)c1ccc(C2SCc3nc4ccccc4n32)cc1 (stereo unspecified) , and I need its recorded TGI.
> 100 µM

I have this compound here, CC(C)=C1C(=O)C[C@]2(C)C[C@H]3O[C@]3(C)CC[C@@H]3O[C@@]3(C)CC[C@@H]12 , and I need its recorded TGI.
> 50 µM

I have this compound here, COC(=O)NC(Nc1ccccn1)(C(F)(F)F)C(F)(F)F , and I need its recorded TGI.
> 100 µM

I have this compound here, CCOC(=O)c1ncn2c1[nH]c(=S)c1ccccc12 , and I need its recorded TGI.
> 100 µM

I have this compound here, CC1OC(OC2C(OC(=O)[C@]34CCC(C)(C)C[C@H]3C3=CC[C@@H]5[C@@]6(C)CC[C@H](OC7OC(C(=O)O)C(O)C(O)C7O)C(C)(C)[C@@H]6CC[C@@]5(C)[C@]3(C)C[C@H]4O)OCC(O)C2O)C(O)C(O)C1OC1OCC(OC2OCC(O)C(O)C2O)C(O)C1O (stereo partly specified) , and I need its recorded TGI.
26.1 µM

I have this compound here, c1ccc(C(C2=Nc3cccc4cccc(c34)N2)c2ccccc2)cc1 , and I need its recorded TGI.
72.4 µM

I have this compound here, CN1CCc2cc3c(c4c2C1C(O)c1ccccc1-4)OCO3 (stereo unspecified) , and I need its recorded TGI.
28.5 µM

----------
- System: HCT-15 colon
- METHOD NOTES: NCI tumour cell line growth inhibition, 48 h
READOUT KIND: GI50

Look over these answered cases.
O=c1n(CC2CO2)c(=O)n(CC2CO2)n1CC1CO1 (centres undefined) | 11.1 µM
Clc1cccc(Cc2cn3cc(-c4ccccc4)nc3s2)c1Cl | > 100 µM
Oc1ccc(Cl)cc1-c1cc(-c2ccccc2Cl)[nH]n1 | 0.488 µM
COc1cc(/C=C/c2cc(/C=C/c3ccc(O)c(OC)c3)n(C(=O)Nc3ccc(F)cc3)n2)ccc1O | 0.566 µM
COc1ccc(C2=CSc3cc(Cl)c(C)cc3S(=O)(=O)N2C(C)=O)cc1 | 24.6 µM

I have this compound here, Cn1ccnc1C(=O)/C=C/c1ccc(CC(=O)Nc2ccc(Br)cc2)cc1 , and I need its recorded GI50.
2.5 µM

I have this compound here, CCCCCCCCSC1=CC(=O)c2nc3ccccc3c3ccnc1c23 , and I need its recorded GI50.
38.4 µM

I have this compound here, Cc1cc2nc(C(Cl)Cl)nc(-c3ccc(Cl)cc3)n2n1 , and I need its recorded GI50.
0.745 µM

----------
- Test system: 786-0 renal
- METHOD NOTES: NCI tumour cell line growth inhibition, 48 h
Quick reference for TGI among some molecules

Look over these answered cases.
COc1c2ccoc2c(/C=C/C=O)c2oc(-c3ccccc3)cc(=O)c12 | > 100 µM
O=c1n(CC2CO2)c(=O)n(CC2CO2)n1CC1CO1 (configuration not stated) | > 83.2 µM
O=[N+]([O-])C(=C(Cl)Cl)C(Cl)=C(Cl)Cl | 0.648 µM
CC(C)=C1C(=O)C[C@]2(C)C[C@H]3O[C@]3(C)CC[C@@H]3O[C@@]3(C)CC[C@@H]12 | > 50 µM
CC(=O)OC(C)C(=O)C1c2cccc(O)c2C(=O)c2c(O)cc(C)cc21 (configuration not stated) | 2.28 µM

I have this molecule here, NC(=O)c1ccc(C(=O)Nc2ccc([As](=O)(O)O)cc2)cc1 , and I need its recorded TGI.
> 100 µM

----------
Quick reference for GI50 among some compounds
- Tested on: SK-OV-3 ovarian
- METHOD NOTES: NCI tumour cell line growth inhibition, 48 h

Look over these answered cases.
COc1cc(/C=C/c2cc(/C=C/c3ccc(O)c(OC)c3)n(C(=O)Nc3ccc(F)cc3)n2)ccc1O | 1.04 µM
CC1=C(C(=O)Nc2ccc(F)c(Cl)c2)C(c2ccc(Cl)cc2)NC(=O)N1 (configuration not stated) | 81.8 µM
C=C(CNCCO)[C@@H]1CC[C@]2(CO)CC[C@]3(C)[C@H](CC[C@@H]4[C@@]5(C)CCC(N)C(C)(C)[C@@H]5CC[C@]43C)[C@@H]12 (some centres not stated) | 11.1 µM
Nc1cc2nc3ccccc3sc-2cc1=O | 13.1 µM
COc1c2ccoc2c(/C=C/C=O)c2oc(-c3ccccc3)cc(=O)c12 | 6.34 µM
Cn1ccnc1C(=O)/C=C/c1ccc(CC(=O)Nc2ccc(Br)cc2)cc1 | 8.88 µM

I have this compound here, COc1cc2c(c(OC)c1O)C(=O)C(OC)C(c1ccc(O)c(O)c1)O2 (configuration not stated) , and I need its recorded GI50.
8.23 µM

----------
- Tested on: CCRF-CEM leukemia
- METHOD NOTES: NCI tumour cell line growth inhibition, 48 h
READOUT KIND: GI50

Look over these answered cases.
Nc1cc2nc3ccccc3sc-2cc1=O | 2470 nM
COc1cc(C(=O)/C=C/c2sc(Cl)nc2Cl)cc(OC)c1OC | 1910 nM

I have this compound here, Cc1cc(=O)n2[nH]c(-c3ccc(C(C)(C)C)cc3)cc2n1 , and I need its recorded GI50.
4190 nM

I have this compound here, O=C(CN1CCN(c2cc3c(cc2F)c(=O)c(C(=O)N/N=C/c2ccccc2O)cn3C2CC2)CC1)N/N=C\c1ccccc1O , and I need its recorded GI50.
167 nM

I have this compound here, Oc1ccc(Cl)cc1-c1cc(-c2ccccc2Cl)[nH]n1 , and I need its recorded GI50.
2710 nM

I have this compound here, NC1CCC(Nc2nc(NCc3ccc(-c4ccco4)nc3)c3ncn(C4CCCC4)c3n2)CC1 (stereo not given) , and I need its recorded GI50.
36.2 nM

I have this compound here, NC(CSC(c1ccccc1)(c1ccccc1)c1ccc2c(c1)OCO2)C(=O)O (stereo not given) , and I need its recorded GI50.
306 nM

I have this compound here, COc1cc2c(c(OC)c1O)C(=O)C(OC)C(c1ccc(O)c(O)c1)O2 (stereo not given) , and I need its recorded GI50.
428 nM

I have this compound here, COc1cc2nc(C)nc(N[C@H](C)c3cc(N)cc(C(F)(F)F)c3)c2cc1O[C@H]1CCOC1 , and I need its recorded GI50.
13500 nM

I have this compound here, COC(=O)Nc1nc2ccc(S(=O)c3ccccc3)cc2[nH]1 (stereo not given) , and I need its recorded GI50.
5160 nM

----------
- Test system: SNB-78 CNS
- METHOD NOTES: NCI tumour cell line growth inhibition, 48 h
Quick reference for TGI among some compounds
Field format: number, assumed µM, no unit text.

COc1ccc(/C=C\c2cc(OC)c3c(c2)OCO3)c(O)c1O | 16
CCOC(=O)C(Sc1ccccc1)c1c(OC)cc(=O)oc1/C=[N+](/[O-])c1ccc(N(C)C)cc1 (stereo unspecified) | 78.9

Continue with the next compound.
I have this compound here, O=C(/C=C/c1ccccc1Cl)c1ccc(Cl)c(Cl)c1 , and I need its recorded TGI.
32.7

----------
- Tested on: HS 578T breast
- METHOD NOTES: NCI tumour cell line growth inhibition, 48 h
READOUT KIND: GI50

Look over these answered cases.
O=[N+]([O-])c1cnc(Sc2ccncn2)s1 | 2.37 µM
CCOC(=O)Nc1nc2ccc(OCC)cc2s1 | 56.7 µM
COC(=O)c1ccc2[nH]c(O)c(C(=Nc3ccc(N(C)C(=O)CN4CCN(C)CC4)cc3)c3ccc(C)cc3)c2c1 | 0.105 µM
CC(C)c1ccc(C(C)C(=O)N(CC2=C(C(C)c3ccccn3)c3ccccc3C2)C(C)C)cc1 (stereo unspecified) | 1.84 µM
COc1cc2nc(-c3ccc(C(F)(F)F)cc3)cc(OCCCN3CCC(O)CC3)c2cc1OC | 3.75 µM

I have this compound here, Fc1ccc(Nc2ncnc3ccc(-c4cnc5[nH]ccc5c4)cc23)cc1Cl , and I need its recorded GI50.
2.66 µM
